measuredTarget: HCV NS3-4A serine protease (full-length NS3-4A protein) (Hepatitis C virus genotype 1a (isolate 1) (HCV), UniProt P26664)
Sequence (P26664 1027-1657): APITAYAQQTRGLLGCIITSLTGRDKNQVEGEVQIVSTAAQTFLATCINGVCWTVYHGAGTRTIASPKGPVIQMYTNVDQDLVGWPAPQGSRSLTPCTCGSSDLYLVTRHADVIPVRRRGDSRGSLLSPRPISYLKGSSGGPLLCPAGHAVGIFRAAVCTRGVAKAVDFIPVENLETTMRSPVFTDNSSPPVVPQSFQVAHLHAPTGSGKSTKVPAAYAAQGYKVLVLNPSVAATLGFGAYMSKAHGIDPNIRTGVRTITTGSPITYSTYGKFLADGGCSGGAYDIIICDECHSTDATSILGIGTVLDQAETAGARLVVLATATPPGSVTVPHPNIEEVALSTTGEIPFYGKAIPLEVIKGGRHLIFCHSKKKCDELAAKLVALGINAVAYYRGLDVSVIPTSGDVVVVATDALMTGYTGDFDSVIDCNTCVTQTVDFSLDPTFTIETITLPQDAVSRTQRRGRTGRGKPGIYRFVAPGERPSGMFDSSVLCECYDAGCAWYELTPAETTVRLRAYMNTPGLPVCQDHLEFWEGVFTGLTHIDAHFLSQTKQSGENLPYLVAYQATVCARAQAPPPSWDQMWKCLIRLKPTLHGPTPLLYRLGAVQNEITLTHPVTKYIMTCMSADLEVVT
Sequence (P26664 1658-1711 partner): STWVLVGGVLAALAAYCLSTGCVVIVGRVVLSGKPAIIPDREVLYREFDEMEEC
assayRemarks: HCV NS3-4A protease assay
conditionsUsed: strain HCV-1, fluorogenic peptide substrate, read-out: Protease assay Ex. 12 IC50
pIC50: −log10 of the molar value.
Each entry below carries its recorded pIC50.
measuredAttribute: pIC50

INSERT INTO results (compoundstructurestring, measuredattribute, number) VALUES
  ('C=C[C@@H]1C[C@]1(NC(=O)[C@@H]1C[C@@]2(CN1C(=O)[C@@H](NC(=O)[C@@H](NC(=O)[C@@H]1CCCCN1C(C)C)c1ccccc1)C(C)(C)C)C(C)(C)C21CCC1)C(=O)NS(=O)(=O)N1CCCC1', 'pIC50', 7.82),
  ('C=C[C@@H]1C[C@]1(NC(=O)[C@@H]1C[C@@]2(CN1C(=O)[C@@H](NC(=O)CC1(CC#N)CCCCC1)C(C)(C)C)C(C)(C)C21CCC1)C(=O)NS(=O)(=O)N1CCCC1', 'pIC50', 6.12),
  ('C=C[C@@H]1C[C@]1(NC(=O)[C@@H]1C[C@@]2(CN1C(=O)[C@@H](NC(=O)[C@@H](NC(=O)[C@H]1CCCCN1C(C)C)C1CCCCC1)C(C)(C)C)C(C)(C)C21CCC1)C(=O)NS(=O)(=O)N(CC)CC', 'pIC50', 8.35),
  ('C=C[C@@H]1C[C@]1(NC(=O)[C@@H]1C[C@@]2(CN1C(=O)[C@@H](NC(=O)[C@@H](NC(=O)[C@@H]1CCCN1CC)C1(C)CCCCC1)C1(C)CCCCC1)C(C)(C)C21CCC1)C(=O)NS(=O)(=O)N(CC)CC', 'pIC50', 7.96);
